- assay-comment: Thermal stability: residual activity after incubation at 60° C. for one hour
- Assay type: biochemical
- assay-conditions: crude recombinant enzyme; after incubation at 60° C. for 1 hour
measured-parameter: Residual activity (%)
Field note: include the unit after the figure.

Please review the entries below; each comes with its answer.
1) Ketose 3-epimerase mutant 7: amino acid-substituted mutant of SEQ ID NO: 1 (protein, Arthrobacter histidinolovorans) MKIGCHGLVWTGRFDAEGIRYSVQKTKEAGFDLIEFPLMDPFSFDVATAKSALAEHGLSVSASLGLSEATDVSSEDPAIVKAGEELLNRALDVLAELGATDFCGVIYSAMKKYMEPATEQGLSNSKAAVGRVVDRAAGLGINVSLEVVNRYETNVLNTGRQALSYLSDVKRPNLGVHLDTYHMNIEESDMFSPVLDTAEVLKYVHIGESHRGYLGTGSVDFDNFFKALGRIGYDGPVVFESFSSAVVAPDLSRMLGIWRNLWADNEELGAHANAFIRDKLTAIKTIELH; 83.1%
2) Ketose 3-epimerase mutant 6: amino acid-substituted mutant of SEQ ID NO: 1 (protein, Arthrobacter histidinolovorans) MKIGCHGLVWTGRFDAEGIRYSVQKTKEAGFDLIEFPLMDPFSFDVATAKSALAEHGLTASASLGLSEATDVSSEDPAIVKAGEELLNRALDVLAELGATDFCGVIYSAMKKYMEPATEQGLSNSKAAVGRVVDRAAGLGINVSLEVVNRYETNVLNTGRQALSYLSDVKRPNLGVHLDTYHMNIEESDMFSPVLDTAEALKYVHIGESHRGYLGTGNVDFDNFFKALGRIGYDGPVVFESFSSAVVAPDLSRMLGIWRNLWADNEELGAHANAFIRDKLTAIKTIELH; 101.2%
3) Ketose 3-epimerase mutant 3: amino acid-substituted mutant of SEQ ID NO: 1 (protein, Arthrobacter histidinolovorans) MKIGCHGLVWTGRFDAEGIRYSVQKTKEAGFDLIEFPLMDPFSFDVATAKSALAEHGLTASASLGLSEATDVSSEDPAIVKAGEELLNRALDVLAELGATEFCGVIYSAMKKYMEPATEQGLSNSKAAIGRVVDRAAGLGINVSLEVVNRYETNVLNTGRQALSYLSDVKRPNLGVHLDTYHMNIEESDMFSPVLDTAEVLKYVHIGESHRGYLGTGSVDFDNFFKALGRIGYDGPVVFESFSSAVVAPDLSRMLGIWRNLWADNEELGAHANAFIRDKLTAIKTIELH; 94.5%

Entry Ketose 3-epimerase mutant 12: amino acid-substituted mutant of SEQ ID NO: 1 (protein, Arthrobacter histidinolovorans) MKIGCHGLVWTGRFDAEGIRYSVQKTKEAGFDLIEFPLMDPFSFDVATAKSALAEHGLTASASLGLSEATDVSSEDPAIVKAGEELLNRALDVLAELGATDFCGVIYSAMKKYMEPATEQGLSNSKAAIGRVVDRAAGLGINVSLEVVNRYETNVLNTGRQALSYLSDVKRPNLGVHLDTYHMNIEESDMFSPVLDTAEALKYVHIGESHRGYLGTGNVDFDNFFKALGRIGYDGPVVFESFSSAVVAPDLSRMLGIWRNLWADNEELGAHANAFIRDKLTAIKTIELH ; Residual activity (%) = 90.5%
